This collection of values is drawn from PubChem BioAssay (NCI).

system: SK-MEL-5 melanoma; assay: NCI tumour cell line growth inhibition, 48 h

{"compound": "CCN(CC)S(=O)(=O)c1ccc(-c2nc(C(Cl)Cl)nc3cc(-c4ccc(F)cc4)nn23)cc1", "TGI": "> 100 µM"}
{"compound": "COc1ccc(C(C)=C(c2ccc(OCCN(C)C)cc2)c2ccc(OCCN(C)C)cc2)cc1", "TGI": "0.794 µM"}
{"compound": "CCN(CC)c1ccc2c(c1)Oc1nc(N)c(C#N)c(N)c1C2Sc1ccc(F)cc1 (centres undefined)", "TGI": "3.17 µM"}
{"compound": "CCCCCCNC(=O)Oc1ccc(/C(=C(/C)c2ccc(Cl)cc2)c2ccc(OCCN3CCCC3)cc2)cc1", "TGI": "3.15 µM"}
